- System: SF/GF peptide
- Procedure text: serum antibody ELISA to SF/GF peptide
- Assay type: in vivo, mice
- Design: scale not given here
- Applied conditions: A/J mice, dose 25 μg; serum pool four days before challenge
Measured property: Antibody EL1SA A490*
Quick one: just the number, no unit, thanks!

Data point: DLLKNGERIEKVEGGG [J, short fragment from β2-microglobulin (a.a. 38-50)] ; Antibody EL1SA A490* = 2

Data point: DGQEEKAGVVSTGLIGGG [derG, modified fragment from MHC II β-chain (a.a. 135-149)] ; Antibody EL1SA A490* = 2

---

- Tested on: Plasmodium yoelii sporozoites
- Procedure text: malaria protection assay, sporozoite challenge of immunized mice
- Type: in vivo
- Applied conditions: A/J mice, dose 25 μg, 100 sporozoites (Table 5)
Measured property: Protection (%)
// unit must come after the numeric part

Data point: DGQEEKAGVVSTGLIGGGSFPMNEESPLGFSPEEMEAVASKFR [derG-GF/SF] ; Protection (%) = 100%

Data point: DLLKNGERIEKVEGGG SFPMNEESPLGFSPEEMEAVASKFR [J-GF/SF] ; Protection (%) = 100%

Data point: DLLKNGERIEKVEGGG [J, short fragment from β2-microglobulin (a.a. 38-50)] ; Protection (%) = 10%

Data point: DGQEEKAGVVSTGLIGGG [derG, modified fragment from MHC II β-chain (a.a. 135-149)] ; Protection (%) = 100%

Data point: SFPMNEESPLGFSPEEMEAVASKFR [GF/SF] ; Protection (%) = 100%

---

- System: SF/GF peptide
- Procedure text: serum antibody ELISA to SF/GF peptide
- Type: in vivo, mice
- Design: scale not given here
- Applied conditions: A/J mice, dose 25 μg; serum pool four days before challenge
Measured property: Antibody EL1SA A490*

Data point: DLLKNGERIEKVEGGG SFPMNEESPLGFSPEEMEAVASKFR [J-GF/SF] ; Antibody EL1SA A490* = 6,121

Data point: DGQEEKAGVVSTGLIGGGSFPMNEESPLGFSPEEMEAVASKFR [derG-GF/SF] ; Antibody EL1SA A490* = 10,694

Data point: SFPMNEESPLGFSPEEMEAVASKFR [GF/SF] ; Antibody EL1SA A490* = 19,970
